Test system: 4T1 murine breast cancer cells
Experiment: Example S: in vitro anticancer screen, 4T1 cells, Wst1
Format: cell-based, mouse
Details: Mus musculus, 4T1, 18 h, 5 μM, 18 hr, Wst1; read-out: 4T1 5 μM, percent of cancer cell survival relative to vehicle treated cells
test-readout: viability at 5 µM (%)
// units = %; emit number, no label

Sample answers from the record:
The reported viability at 5 µM of the molecule CCCCCCOCCCCCCCCNc1ncnc2ccccc12 [EW, N-[8-(Hexyloxy)octyl]quinazolin-4-amine] was 18.9

The reported viability at 5 µM of the molecule COc1ccc(C(=O)NCCCCCCCCNc2ccnc3ccccc23)cc1 was 36.8

The reported viability at 5 µM of the molecule CCCCOCCCCCCNc1ccnc2ccccc12 was 19.5

The reported viability at 5 µM of the molecule CCCCCC(=O)Nc1cccc(Nc2ccnc3ccccc23)c1 was 112

The reported viability at 5 µM of the molecule CCCCCCOc1cccc(CNc2ccnc3ccccc23)c1 [Compound AC, N-[3-(Hexyloxy)benzyl]quinolin-4-amine] was 19.3

The reported viability at 5 µM of the molecule c1cncc(CNc2ccnc3ccccc23)c1 was 209

The reported viability at 5 µM of the molecule CCCCCCCCCCCCOCCn1cnc2cnc3ccccc3c21 was 25.5

The reported viability at 5 µM of the molecule CCCCCCOCCCCCCCCn1cnc2cnccc21 was 23.1

Okay, next one:
The reported viability at 5 µM of the molecule CCCCCCOCCCCCCCCNc1ncccn1 was 98

* * *

System: Aspergillus fumigatus strains
Experiment: Example N: MIC and MFC (CLSI) against Aspergillus fumigatus
Format: cell-based
Conditions: Aspergillus fumigatus, 48 h, read-out: MIC 100%
test-readout: MIC

Sample answers from the record:
The reported MIC of the molecule CCCCCCCCCCNc1ccnc2ccccc12 was 1 to 2 µg/mL

The reported MIC of the molecule CCCCCCCCCCNc1ncnc2ccccc12 was 0.25 to 4 µg/mL

The reported MIC of the molecule CCCCCCOCCCCCCCCNc1ccnc2c(Cl)cccc12 was 4 to 8 µg/mL

New cases:
The reported MIC of the molecule COc1ccc(OCCCCCCCCNc2ncnc3ccccc23)cc1 was 1 to 4 µg/mL

* * *

Test system: 4T1 murine breast cancer cells
Experiment: Example S: in vitro anticancer screen, 4T1 cells, Wst1
Assay type: cell-based, mouse
Conditions: Mus musculus, 4T1, 18 h, 5 μM, 18 hr, Wst1; read-out: 4T1 5 μM, percent of cancer cell survival relative to vehicle treated cells
test-readout: viability at 5 µM (%)
// units = %; emit number, no label

Sample answers from the record:
The reported viability at 5 µM of the compound CCN(CC)CCNC(=O)c1ccc(Nc2ccnc3ccccc23)cc1 was 236

The reported viability at 5 µM of the compound O=C(NCCCCCCCCNc1ccnc2ccccc12)c1cccnc1 was 23.7

The reported viability at 5 µM of the compound c1ccc(CCNc2ccnc3ccccc23)cc1 was 27.2

Okay, next one:
The reported viability at 5 µM of the compound COCCCCCCCCNc1cc[n+](C)cc1.[I-] was 21.4

* * *

Test system: 4T1 murine breast cancer cells
Test: Example S: in vitro anticancer screen, 4T1 cells, Wst1
Type: cell-based, mouse
Settings: Mus musculus, 4T1, 18 h, 5 μM, 18 hr, Wst1; read-out: 4T1 5 μM, percent of cancer cell survival relative to vehicle treated cells
Flag rule - viability at 5 µM less than 30% flags class 1; the remaining entries get class 0.

Some solved cases for reference:
Consider CCCCCCOCCCCCCCCNc1ccc2ncccc2c1 [EK, N-[8-(Hexyloxy)octyl]quinolin-6-amine] . Does its viability at 5 µM lie strictly below 30%? class 0

Consider CCCCOc1ccc(Nc2ccnc3ccccc23)cc1 . Does its viability at 5 µM lie strictly below 30%? class 0

New cases:
Consider CCCCCCOCCCCCCCCNc1cnccn1 [FV, N-[8-(Hexyloxy)octyl]pyrazin-2-amine] . Does its viability at 5 µM lie strictly below 30%? class 0

Consider c1ccc(COc2ccccc2Nc2ccnc3ccccc23)cc1 [DO, N-[2-(Benzyloxy)phenyl]quinolin-4-amine] . Does its viability at 5 µM lie strictly below 30%? class 0

Consider CCCCCCOCCCCCCCC[n+]1ccc(N)cc1 . Does its viability at 5 µM lie strictly below 30%? class 1

Consider CC(C)(C)c1ccc(OCCCCCCCCNc2ccnc3ccccc23)cc1 . Does its viability at 5 µM lie strictly below 30%? class 1

Consider CCCCCCOCCCCCCCCNc1ccnc2cc(Cl)ccc12 . Does its viability at 5 µM lie strictly below 30%? class 1

Consider CCCCCCCCCCCCCCCCn1cnc2c(N)nc3ccccc3c21 . Does its viability at 5 µM lie strictly below 30%? class 0

Consider Fc1ccc(OCCCCCCCCNc2ccnc3ccccc23)cc1 . Does its viability at 5 µM lie strictly below 30%? class 0

Consider CCCCCCCCCCCCn1cnc2cnc3ccccc3c21 [FY, 1-Dodecyl-1H-imidazo[4,5-c]quinoline] . Does its viability at 5 µM lie strictly below 30%? class 1

Consider COc1ccc(OCCCCCCCCNc2ccnc3ccccc23)cc1 . Does its viability at 5 µM lie strictly below 30%? class 0

Consider c1ccc(CNc2ccnc3ccccc23)cc1 . Does its viability at 5 µM lie strictly below 30%? class 0

Consider O=C(NCCCNc1ccnc2ccccc12)c1ccccc1 . Does its viability at 5 µM lie strictly below 30%? class 0

Consider c1ccc2c(NCCN3CCOCC3)ccnc2c1 . Does its viability at 5 µM lie strictly below 30%? class 0

Consider CCCCOCCCCCCCCCCn1cnc2cnccc21 . Does its viability at 5 µM lie strictly below 30%? class 1

Consider CCOCCCOCCCCCCCCNc1ccnc2ccccc12 . Does its viability at 5 µM lie strictly below 30%? class 1

Consider Cc1ccccc1OCCCCCCCCNc1ccnc2ccccc12 [BG, N-[8-(o-Tolyloxy)octyl]quinolin-4-amine] . Does its viability at 5 µM lie strictly below 30%? class 1

Consider CCCCCCOCCCCCCCCNc1cnc2ccccc2c1 [EL, N-[8-(Hexyloxy)octyl]quinolin-3-amine] . Does its viability at 5 µM lie strictly below 30%? class 0

* * *

Items are presented alongside their recorded MIC.
System: Trichophyton rubrum
Test: Example J: Trichophyton rubrum growth inhibition, scoring by eye
Format: cell-based
Conditions: Trichophyton rubrum, 144 h; 6 days at 30° C., tested 6 to 40 μM; read-out: MIC, μM (maximum inhibition concentration, scoring by eye)

Sample answers from the record:
The reported MIC of the compound CCCCCCc1ccc(Nc2ccnc3ccccc23)cc1 was > 40 µM

The reported MIC of the compound CCCCCCOc1ccc(Nc2ccnc3ccccc23)c(F)c1 was > 40 µM

The reported MIC of the compound CCCCCCOC(=O)c1ccc(Nc2ccnc3ccccc23)cc1 [AP, Hexyl 4-(quinolin-4-ylamino)benzoate] was ~40 µM

The reported MIC of the compound CCCCCCNC(=O)c1ccc(Nc2ccnc3ccccc23)cc1 [AQ, N-Hexyl-4-(quinolin-4-ylamino)benzamide] was > 40 µM

Okay, next one:
The reported MIC of the compound CCCCCCOCCCCCCCC[n+]1ccc(N)cc1 was > 40 µM

* * *

Items are presented alongside their recorded MIC.
System: Rhizopus strains
Test: Example N: MIC and MFC (CLSI) against Rhizopus
Assay type: cell-based, Rhizopus spp.
Conditions: Rhizopus, 48 h, read-out: MIC 100%

Sample answers from the record:
The reported MIC of the molecule COc1ccc(OCCCCCCCCNc2ncnc3ccccc23)cc1 was 1 to 4 µg/mL

The reported MIC of the molecule CCCCCCCCCCNc1ccnc2ccccc12 was 2 to 4 µg/mL

The reported MIC of the molecule CCCCCCOCCCCCCCCNc1ccnc2c(Cl)cccc12 was 1 to 2 µg/mL

Okay, next one:
The reported MIC of the molecule CCCCCCOc1cccc(CNc2ccnc3ccccc23)c1 [Compound AC, N-[3-(Hexyloxy)benzyl]quinolin-4-amine] was 0.5 to 1 µg/mL

* * *

Tested on: PC-3 prostate cancer cells
Assay: Example T: sensitisation of PC-3 cells to doxorubicin, oxaliplatin, paclitaxel or vincristine, Wst1
Format: cell-based, human
Details: PC-3 cells; compound 0.4 μM + vincristine 100 nM; 72 hours; chemotherapy agent alone normalized to 100%
Flag rule - Vincristine 100 nM: percent cell survival less than 30% flags Condition met; the remaining entries get Condition not met.

Some solved cases for reference:
Consider CCCCOCCCCCCCCCCNc1ccnc2ccccc12 [AM, N-(10-Butoxydecyl)quinolin-4-amine] . Does its Vincristine 100 nM: percent cell survival lie strictly below 30%? Condition met

Consider CCCCCCOc1ccc(OCCCNc2ccnc3ccccc23)cc1 [CY] . Does its Vincristine 100 nM: percent cell survival lie strictly below 30%? Condition not met

Consider COc1ccc(OCCCCCCCCNc2ccnc3ccccc23)cc1 [AD] . Does its Vincristine 100 nM: percent cell survival lie strictly below 30%? Condition not met

Consider CCCCCCOCCCCCCCCCCNc1ccnc2ccccc12 [Compound AL, N-[10-(Hexyloxy)decyl]quinolin-4-amine] . Does its Vincristine 100 nM: percent cell survival lie strictly below 30%? Condition met

Consider c1ccc(Oc2ccccc2Nc2ccnc3ccccc23)cc1 [DF, N-(2-Phenoxyphenyl)quinolin-4-amine] . Does its Vincristine 100 nM: percent cell survival lie strictly below 30%? Condition not met

Consider CCCCCCOc1cccc(OCCNc2ccnc3ccccc23)c1 [CW] . Does its Vincristine 100 nM: percent cell survival lie strictly below 30%? Condition not met

New cases:
Consider CCCCCCOCCCCCCCC[n+]1ccc(N)cc1 [BO] . Does its Vincristine 100 nM: percent cell survival lie strictly below 30%? Condition met
